target: T1, mSlo1/β4(N123I) channel (mouse | human, UniProt Q08460 1-1209; Q86W47 1-210, N123I); experiment: patch-clamp electrophysiology (time course of current block); outside-out patches of transfected HEK293 cells perfused with 1 μM ChTX; steps to +100 mV, intracellular 10 μM Ca2+; τon and τoff fitted to a first order bimolecular reaction scheme; KD = [ChTX]/((τoff/τon) − 1); settings: one partner purified
T1 construct: mSlo1, BK channel α subunit (KCNMA1) of mouse, full-length cDNA, GenBank HQ221747.1; human BK channel β4 subunit (KCNMB4), full-length cDNA, GenBank AF207992.1; source: HEK293, transiently co-transfected (pcDNA3.1(+)), in excised membrane patches; copies: 4 + 4
T1 sequence (Q08460 whole entry, chain 1 of 2, the tested form may be a part): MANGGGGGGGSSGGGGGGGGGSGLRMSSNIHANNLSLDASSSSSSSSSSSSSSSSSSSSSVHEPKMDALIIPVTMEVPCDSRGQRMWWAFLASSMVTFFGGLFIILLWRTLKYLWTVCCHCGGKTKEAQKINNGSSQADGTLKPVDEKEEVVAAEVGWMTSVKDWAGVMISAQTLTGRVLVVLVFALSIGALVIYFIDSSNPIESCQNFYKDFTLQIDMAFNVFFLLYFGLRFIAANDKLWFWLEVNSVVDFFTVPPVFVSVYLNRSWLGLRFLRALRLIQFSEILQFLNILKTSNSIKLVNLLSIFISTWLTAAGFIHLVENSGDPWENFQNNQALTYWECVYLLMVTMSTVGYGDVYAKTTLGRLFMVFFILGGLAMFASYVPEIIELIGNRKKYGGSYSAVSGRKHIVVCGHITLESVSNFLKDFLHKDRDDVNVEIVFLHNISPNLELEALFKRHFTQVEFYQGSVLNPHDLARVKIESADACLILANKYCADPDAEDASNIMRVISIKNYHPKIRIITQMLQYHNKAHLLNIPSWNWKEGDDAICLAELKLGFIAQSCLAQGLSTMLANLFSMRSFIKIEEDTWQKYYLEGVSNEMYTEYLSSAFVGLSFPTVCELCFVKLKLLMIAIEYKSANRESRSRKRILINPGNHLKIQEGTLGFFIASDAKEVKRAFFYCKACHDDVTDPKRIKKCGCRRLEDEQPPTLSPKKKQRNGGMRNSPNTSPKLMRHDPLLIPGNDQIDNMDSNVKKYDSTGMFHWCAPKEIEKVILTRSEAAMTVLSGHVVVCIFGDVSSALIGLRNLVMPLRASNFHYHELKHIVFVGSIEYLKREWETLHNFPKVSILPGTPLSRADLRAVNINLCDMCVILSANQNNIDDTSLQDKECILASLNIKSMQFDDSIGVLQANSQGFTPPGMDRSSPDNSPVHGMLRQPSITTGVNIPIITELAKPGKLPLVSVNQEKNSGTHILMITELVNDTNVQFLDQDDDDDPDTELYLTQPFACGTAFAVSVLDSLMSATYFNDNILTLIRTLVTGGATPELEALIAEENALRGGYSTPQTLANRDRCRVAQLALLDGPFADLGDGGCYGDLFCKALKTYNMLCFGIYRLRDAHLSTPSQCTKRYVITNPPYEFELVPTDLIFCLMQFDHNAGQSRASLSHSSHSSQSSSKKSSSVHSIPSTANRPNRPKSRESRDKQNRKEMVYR
T1 sequence (Q86W47 whole entry N123I, chain 2 of 2, the tested form may be a part): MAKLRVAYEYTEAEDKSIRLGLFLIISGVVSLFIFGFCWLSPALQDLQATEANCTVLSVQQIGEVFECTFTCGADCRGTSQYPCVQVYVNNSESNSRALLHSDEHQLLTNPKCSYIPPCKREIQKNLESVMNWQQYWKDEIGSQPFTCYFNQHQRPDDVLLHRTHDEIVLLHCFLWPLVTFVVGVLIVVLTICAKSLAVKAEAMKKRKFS
Measured Attribute: pKd
Scale for pKd: -log10 of concentration given in mol/L; no unit attached.

In plain terms, QFTNVSCTTSKECWSVCQRLHNTSRGKCMNKKCRCYS (charybdotoxin (ChTX), scorpion toxin; also called ChTX; source: bought: Sigma-Aldrich (Art. No. C7802)) [Charybdotoxin] has a documented pKd of 6.92
